tested on: SK-MEL-28 melanoma cells; assay: Cell proliferation WST-1 assay, single dose (Example 4); assay type: cell-based; settings: 100 μM, 48 hours
# Cell Viability (% of Vehicle) SK-MEL-28 listing for each entry below

1. Cc1ccc(/C=C2\SC(=O)N(CCN)C2=O)cc1 [Compound 30d] ... 31 ± 7 % of Vehicle
2. CCOc1ccc(/C=C2\SC(=O)N(Cc3cccc(N)n3)C2=O)cc1 [Compound 28b] ... 86 ± 3 % of Vehicle
3. CCOc1ccc(/C=C2\SC(=O)N(CCNS(=O)(=O)c3ccc(C#N)cc3)C2=O)cc1 [Compound 27b] ... 95 ± 3 % of Vehicle
4. NCCN1C(=O)S/C(=C\c2ccccc2O)C1=O [Compound 30i] ... 85 ± 9 % of Vehicle
5. CCOc1ccc(/C=C2\SC(=O)N(CCNC(C)=O)C2=O)cc1 [Compound 25a] ... 105 ± 2 % of Vehicle

Task item: What value of Cell Viability (% of Vehicle) SK-MEL-28 on SK-MEL-28 melanoma cells does NCCN1C(=O)S/C(=C\c2ccc(O)cc2)C1=O [Compound 30f] have?
Reply: 38 ± 3 % of Vehicle

Task item: Hello, I am looking for reported Cell Viability (% of Vehicle) SK-MEL-28 with SK-MEL-28 melanoma cells for CCOc1ccc(/C=C2\SC(=O)N(C(CN)CN)C2=O)cc1 [Compound 22e] . Could you help?
Reply: 32 ± 2 % of Vehicle

Task item: Hi! What's the reported Cell Viability (% of Vehicle) SK-MEL-28 for CCOc1ccc(/C=C2\SC(=O)N(CCNCc3ccccc3)C2=O)cc1 [Compound 23d] on SK-MEL-28 melanoma cells?
Reply: 25 ± 6 % of Vehicle

Task item: Find Cell Viability (% of Vehicle) SK-MEL-28 (SK-MEL-28 melanoma cells) for the entry CCOc1ccc(/C=C2\SC(=O)N(Cc3ccc(N)cc3)C2=O)cc1 [Compound 28o]
Reply: 94 ± 5 % of Vehicle

---

Attribute: Cell Viability (% of Vehicle) HL-60
system: HL-60 leukemic cells; test: Cell proliferation WST-1 assay, single dose (Example 4); format: cell-based; details: 100 μM, 48 hours

Task item: Record request: Cell Viability (% of Vehicle) HL-60 value, item CCOc1ccc(/C=C2\SC(=O)N(CCN(Cc3ccc(C#N)cc3)Cc3cccc(C#N)c3)C2=O)cc1 [Compound 24c]
Reply: 108 ± 16 % of Vehicle

Task item: For the compound shown here, CCOc1ccc(/C=C2\SC(=O)N(Cc3cccc(N)n3)C2=O)cc1 [Compound 28b] , give the reported Cell Viability (% of Vehicle) HL-60.
Reply: 107 ± 26 % of Vehicle

Task item: Recorded Cell Viability (% of Vehicle) HL-60 of CCOc1ccc(/C=C2\SC(=O)N(C(CN)CN)C2=O)cc1 [Compound 22e] , please.
Reply: 11 ± 4 % of Vehicle

Task item: Would you kindly share the measured Cell Viability (% of Vehicle) HL-60 for CCOc1ccc(/C=C2\SC(=O)N(CCN(C)C)C2=O)cc1 [Compound 24a] ?
Reply: 110 ± 14 % of Vehicle

Task item: For CCOc1ccc(/C=C2\SC(=O)N(CCNC(=O)OC)C2=O)cc1 [Compound 26a] , what is its reported Cell Viability (% of Vehicle) HL-60?
Reply: 104 ± 31 % of Vehicle

Task item: For the compound shown here, NCCN1C(=O)S/C(=C\c2ccccc2O)C1=O [Compound 30i] , give the reported Cell Viability (% of Vehicle) HL-60.
Reply: 24 ± 8 % of Vehicle

Task item: For the compound shown here, NCCN1C(=O)S/C(=C\c2ccc(OCc3ccccc3)cc2)C1=O [Compound 30h] , give the reported Cell Viability (% of Vehicle) HL-60.
Reply: 5.2 ± 2 % of Vehicle

Task item: Quick one: Cell Viability (% of Vehicle) HL-60 for CCOc1ccc(/C=C2\SC(=O)N(CCNC(=O)OCC3c4ccccc4-c4ccccc43)C2=O)cc1 [Compound 26e] ?
Reply: 103 ± 13 % of Vehicle

Task item: Would you kindly share the measured Cell Viability (% of Vehicle) HL-60 for CCOc1ccc(/C=C2\SC(=S)N(CCN)C2=O)cc1 ?
Reply: 7.9 ± 3 % of Vehicle

Task item: Cell Viability (% of Vehicle) HL-60 for CCOc1ccc(/C=C2\SC(=O)N(Cc3ccccc3C(=O)O)C2=O)cc1 [Compound 28s] ?
Reply: 31 ± 15 % of Vehicle

Task item: Name the recorded Cell Viability (% of Vehicle) HL-60 for CCOc1ccc(/C=C2\SC(=O)N(CCNC(=O)C(F)(F)F)C2=O)cc1 [Compound 25b] .
Reply: 101 ± 23 % of Vehicle

Task item: If you can, please state the reported Cell Viability (% of Vehicle) HL-60 value of CCOc1ccc(/C=C2\SC(=O)N(CCNC(=O)c3ccc(C#N)cc3)C2=O)cc1 [Compound 25d] .
Reply: 101 ± 12 % of Vehicle

Task item: State the recorded Cell Viability (% of Vehicle) HL-60 for this entry: CCOc1ccc(/C=C/C(=O)NCCN)cc1
Reply: 59 ± 25 % of Vehicle

Task item: I'd like to know its Cell Viability (% of Vehicle) HL-60. The compound in question is CCOc1ccc(/C=C2\SC(=O)N(CCNCC(C)C)C2=O)cc1 [Compound 23c]
Reply: 10 ± 4 % of Vehicle

Task item: What does the record list as Cell Viability (% of Vehicle) HL-60 for CCOc1ccc(/C=C2\SC(=O)N(CCNC(=O)OCC(C)C)C2=O)cc1 [Compound 26c] ?
Reply: 80 ± 28 % of Vehicle

Task item: Would you mind telling me what Cell Viability (% of Vehicle) HL-60 value was observed for CC(C)COc1ccccc1/C=C1\SC(=O)N(CCN)C1=O [Compound 30j] ?
Reply: 9.5 ± 3.4 % of Vehicle

Task item: Which Cell Viability (% of Vehicle) HL-60 is reported for this compound? CCOc1cccc(/C=C2\SC(=O)N(CCN)C2=O)c1 [Compound 30b]
Reply: 4.8 ± 2 % of Vehicle

---

system: Jurkat T-cell leukemia cells; assay: Cell proliferation WST-1 assay, single dose (Example 4); assay type: cell-based; conditions: 100 μM, 48 hours
Catalogue of Cell Viability (% of Vehicle) Jurkat values

1) CCOc1ccc(/C=C2\SC(=O)N(CC(=O)OC(C)(C)C)C2=O)cc1 [Compound 28g] ... 108 ± 3 % of Vehicle

Task item: Find the recorded Cell Viability (% of Vehicle) Jurkat belonging to CCOc1ccc(/C=C2\CCN(CCN)C2=O)cc1 [Compound 17] and report it.
Reply: 92 ± 2 % of Vehicle

Task item: What value of Cell Viability (% of Vehicle) Jurkat has been reported for the following compound? CCOc1ccc(/C=C2\SC(=O)N(CCNC(=O)OCC(C)C)C2=O)cc1 [Compound 26c]
Reply: 110 ± 4 % of Vehicle

Task item: Recorded Cell Viability (% of Vehicle) Jurkat for CC(C)COc1ccc(/C=C2\SC(=O)N(CCN)C2=O)cc1 [Compound 30g] , please?
Reply: 91 ± 8 % of Vehicle

Task item: Reported Cell Viability (% of Vehicle) Jurkat, compound CCOc1ccc(/C=C2\SC(=O)N(CCCl)C2=O)cc1 [Compound 28f] : ____
Reply: 99 ± 5 % of Vehicle

Task item: Bench note: what Cell Viability (% of Vehicle) Jurkat did CCOc1ccc(/C=C2\SC(=O)N(Cc3ccncc3)C2=O)cc1 [Compound 28l] show?
Reply: 96 ± 11 % of Vehicle

Task item: Report Cell Viability (% of Vehicle) Jurkat for CCOc1ccc(/C=C2\SC(=O)N(CCNC(=O)OC)C2=O)cc1 [Compound 26a] please.
Reply: 97 ± 7 % of Vehicle

Task item: What does the data say about its Cell Viability (% of Vehicle) Jurkat? Entry: [H]/N=C(/N)NCCN1C(=O)SC(=Cc2ccc(OCC)cc2)C1=O [Compound 28c]
Reply: 6.5 ± 0.5 % of Vehicle

---

tested on: RPMI-7951 melanoma cells; assay: Cell proliferation WST-1 assay, single dose (Example 4); format: cell-based; conditions: 100 μM, 48 hours
quantity.name: Cell Viability (% of Vehicle) RPMI-7951

1. CCOc1ccc(/C=C2\SC(=O)N(C[C@H](N)C(=O)OC)C2=O)cc1 [Compound 22d] ... 1.8 ± 0.1 % of Vehicle
2. CCOc1ccc(/C=C2\SC(=O)N(CCN(Cc3ccccc3)Cc3ccccc3)C2=O)cc1 [Compound 24b] ... 120 ± 3 % of Vehicle

Task item: API: value(readout=Cell Viability (% of Vehicle) RPMI-7951, system=RPMI-7951 melanoma cells) for record CCOc1ccc(/C=C2\SC(=O)N(CC(=O)O)C2=O)cc1 [Compound 28h]
Reply: 133 ± 9 % of Vehicle

Task item: API: value(readout= Cell Viability (% of Vehicle) RPMI-7951, system= RPMI-7951 melanoma cells, query= CCOc1ccc(CC2SC(=O)N(CCN)C2=O)cc1 (centres unmarked) [Compound 6] )
Reply: 70 ± 5 % of Vehicle

Task item: Lab note: need Cell Viability (% of Vehicle) RPMI-7951 with RPMI-7951 melanoma cells for entry CCOc1ccc(/C=C2\SC(=O)N(CCNC(=O)OC(C)(C)C)C2=O)cc1 [Compound 25c] , please look it up.
Reply: 62 ± 7 % of Vehicle

Task item: Lab note: need Cell Viability (% of Vehicle) RPMI-7951 with RPMI-7951 melanoma cells for entry CCOc1ccc(/C=C2\SC(=O)N(Cc3ccccc3C(=O)O)C2=O)cc1 [Compound 28s] , please look it up.
Reply: 45 ± 8 % of Vehicle

Task item: Any idea what Cell Viability (% of Vehicle) RPMI-7951 came out for CCOc1ccc(/C=C2\SC(=O)N(CCCN)C2=O)cc1 [Compound 22a] on RPMI-7951 melanoma cells?
Reply: 0.6 ± 0.1 % of Vehicle

Task item: Recall the recorded Cell Viability (% of Vehicle) RPMI-7951 for CCCN1C(=O)S/C(=C\c2ccc(OCC)cc2)C1=O [Compound 28d] with RPMI-7951 melanoma cells and state it.
Reply: 116 ± 10 % of Vehicle

Where these numbers come from: patent US9115122B2
